- System: AVEFA
- measurement-description: Pre-emergence herbicidal action against AVEFA
- Assay type: in vivo, Avena fatua
- condition: application rate 80 g/ha, scored visually after about 3 weeks vs untreated controls (100% = plants have died, 0% = like control plants)
Overview of recorded Herbicidal action against [%] AVEFA for various compounds
Write the answer as a number in %, unit excluded.

Below: 5 compounds and their reported Herbicidal action against [%] AVEFA.
CCOC(=O)C1=CC[C@H](NC(=O)C2(C)CC(c3cccc(F)c3)=NO2)C1 (stereo partly shown) [III-06]: 80
CONC(=O)[C@@H]1C=C[C@H](NC(=O)C2(C)CC(c3cc(F)cc(F)c3)=NO2)C1 (stereo partly shown) [II-02]: 90
CC1(C(=O)N[C@H]2C=C[C@@H](C(=O)O)C2)CC(c2cccc(F)c2)=NO1 (stereo partly shown) [Example I-002]: 80
CC1(C(=O)NC2C=CC(C(=O)NS(=O)(=O)C(F)(F)F)C2)CC(c2cccc(F)c2)=NO1 (mixture of isomers) [II-16]: 80
CN(C)NC(=O)C1=CCC(NC(=O)C2(C)CC(c3cccc(F)c3)=NO2)C1 (mixture of isomers) [IV-05]: 80

Query compound follows.
[Q] Endpoint output: Herbicidal action against [%] AVEFA of CC1(C(=O)N[C@H]2CC=C(C(=O)O)C2)CC(c2cccc(F)c2)=NO1 (stereo partly shown) [III-02] . Value?
[A] 80

###

- Test system: STEME
- measurement-description: Post-emergence herbicidal action against STEME
- Type: in vivo, Stellaria media
- condition: application rate 80 g/ha, rated visually about 3 weeks after treatment
parameter-measured: Herbicidal action against [%] STEME

Below: 3 compounds and their reported Herbicidal action against [%] STEME.
COC(=O)[C@@H]1C=C[C@H](NC(=O)C2(C(F)(F)F)CC(c3cc(C)cc(Cl)c3)=NO2)C1 (stereo partly shown): 80%
C=CC1(C(=O)NC2C=CC(C(=O)N3CCCO3)C2)CC(c2cc(F)cc(F)c2)=NO1 (stereo not shown) [II-28]: 90%
CCOC(=O)[C@@H]1C=C[C@H](NC(=O)C2(C(F)(F)F)CC(c3ccccc3)=NO2)C1 (stereo partly shown): 80%

[Q] Endpoint output: Herbicidal action against [%] STEME of C=CC1(C(=O)NC2C=CC(C(=O)O)C2)CC(c2cc(F)cc(F)c2)=NO1 (stereo not shown) [Example I-011] . Value?
[A] 90%

[Q] Endpoint output: Herbicidal action against [%] STEME of C=CC1(C(=O)N[C@H]2CC=C(C(=O)OC(C)C)C2)CC(c2cc(F)cc(F)c2)=NO1 (stereo partly shown) . Value?
[A] 90%

[Q] Endpoint output: Herbicidal action against [%] STEME of C=CC1(C(=O)N[C@H]2C=C[C@@H](C(=O)OCCC(F)(F)F)C2)CC(c2cc(F)cc(F)c2)=NO1 (stereo partly shown) . Value?
[A] 100%

[Q] Endpoint output: Herbicidal action against [%] STEME of CC(C)(C)OC(=O)[C@@H]1C=C[C@H](NC(=O)C2(C)CC(c3cc(F)cc(F)c3)=NO2)C1 (stereo partly shown) . Value?
[A] 90%

###

- System: VERPE
- measurement-description: Pre-emergence herbicidal action against VERPE
- Format: in vivo, Veronica persica
- condition: application rate 80 g/ha
parameter-measured: Herbicidal action against [%] VERPE
Record the result as number plus unit.

Below: 3 compounds and their reported Herbicidal action against [%] VERPE.
CC1(C(=O)N[C@H]2CC=C(C(=O)O)C2)CC(c2cccc(F)c2)=NO1 (stereo partly shown): 90%
CCOC(=O)C1=CC[C@H](NC(=O)C2(C)CC(c3cccc(F)c3)=NO2)C1 (stereo partly shown): 80%
CC1(C(=O)N[C@@H]2CC=C(C(=O)O)C2)CC(c2cccc(F)c2)=NO1 (mixture of isomers): 90%

Query compound follows.
[Q] I'm curious: which Herbicidal action against [%] VERPE was measured for C=CC1(C(=O)NC2C=CC(C(=O)OC)C2)CC(c2cc(F)cc(F)c2)=NO1 (stereo not shown) tested on VERPE?
[A] 100%

###

Overview of recorded Herbicidal action against [%] STEME for various compounds
- Tested on: STEME
- measurement-description: Post-emergence herbicidal action against STEME
- Type: in vivo, Stellaria media
- condition: application rate 80 g/ha, rated visually about 3 weeks after treatment
Write the answer as a number in %, unit excluded.

O=C(O)C1=C[C@@H](NC(=O)[C@@]2(C(F)(F)F)CC(c3cc(F)cc(F)c3)=NO2)CC1: 90
CC1(C(=O)N[C@H]2CC=C(C(=O)O)C2)CC(c2cccc(F)c2)=NO1 (stereo partly shown): 80
O=C(OCC(F)(F)F)C1C=CC(NC(=O)C2(C(F)(F)F)CC(c3cc(Cl)cc(Cl)c3)=NO2)C1 (mixture of isomers): 80
CCOC(=O)C1C=CC(NC(=O)C2(C(F)(F)F)CC(c3cc(F)cc(F)c3)=NO2)C1 (mixture of isomers): 90
COCCOC(=O)C1C=CC(NC(=O)C2(C)CC(c3cccc(C#N)c3)=NO2)C1 (mixture of isomers): 90
CCOC(=O)[C@@H]1C=C[C@H](NC(=O)C2(OC)CC(c3cc(F)cc(F)c3)=NO2)C1 (stereo partly shown): 80

Query compound follows.
[Q] Endpoint output: Herbicidal action against [%] STEME of CN(C)NC(=O)C1=CCC(NC(=O)C2(C)CC(c3cccc(F)c3)=NO2)C1 (mixture of isomers) . Value?
[A] 80

###

- Test system: ABUTH
- measurement-description: Post-emergence herbicidal action against ABUTH
- Assay type: in vivo, Abutilon theophrasti
- condition: application rate 80 g/ha, rated visually about 3 weeks after treatment
parameter-measured: Herbicidal action against [%] ABUTH (%)
Write the answer as a number in %, unit excluded.

Below: 5 compounds and their reported Herbicidal action against [%] ABUTH.
O=C(O)C1C=CC(NC(=O)C2(C3CC3)CC(c3cc(F)cc(F)c3)=NO2)C1 (centres unmarked): 90
CCOC(=O)C1C=CC(NC(=O)C2(C(F)(F)F)CC(c3cc(OC)cc(OC)c3)=NO2)C1 (mixture of isomers): 80
Cc1cc(C2=NOC(C(=O)NC3C=CC(C(=O)OCC(F)(F)F)C3)(C(F)(F)F)C2)cc(C(F)(F)F)c1 (mixture of isomers): 80
COCCOC(=O)C1C=CC(NC(=O)C2(C)CC(c3cccc(C#N)c3)=NO2)C1 (mixture of isomers): 80
O=C(OCCCl)C1C=CC(NC(=O)C2(C(F)(F)F)CC(c3cc(Cl)cc(Cl)c3)=NO2)C1 (mixture of isomers): 80

[Q] Endpoint output: Herbicidal action against [%] ABUTH of C=CC1(C(=O)N[C@H]2CC=C(C(=O)OCCOCC)C2)CC(c2cc(F)cc(F)c2)=NO1 (some centres unmarked) . Value?
[A] 80

[Q] Endpoint output: Herbicidal action against [%] ABUTH of O=C(OCc1ccccc1)C1C=CC(NC(=O)C2(C(F)(F)F)CC(c3cc(F)cc(F)c3)=NO2)C1 (mixture of isomers) . Value?
[A] 80

[Q] Endpoint output: Herbicidal action against [%] ABUTH of C=CC1(C(=O)N[C@H]2C=C[C@@H](C(=O)OCC(F)F)C2)CC(c2cc(F)cc(F)c2)=NO1 (some centres unmarked) . Value?
[A] 90

[Q] Endpoint output: Herbicidal action against [%] ABUTH of CCOC(=O)C1C=CC(NC(=O)C2(C)CC(c3cccc(C#N)c3)=NO2)C1 (mixture of isomers) . Value?
[A] 80

[Q] Endpoint output: Herbicidal action against [%] ABUTH of C=CC1(C(=O)N[C@H]2CC=C(C(=O)O)C2)CC(c2cc(F)cc(F)c2)=NO1 (some centres unmarked) . Value?
[A] 80

[Q] Endpoint output: Herbicidal action against [%] ABUTH of CCOC(=O)C1C=CC(NC(=O)C2(C(F)(F)F)CC(c3cccc(C#N)c3)=NO2)C1 (mixture of isomers) . Value?
[A] 80

[Q] Endpoint output: Herbicidal action against [%] ABUTH of COC(=O)C(NC(=O)C1C=CC(NC(=O)C2(C)CC(c3cc(F)cc(F)c3)=NO2)C1)C(C)C (mixture of isomers) . Value?
[A] 90

[Q] Endpoint output: Herbicidal action against [%] ABUTH of O=C(C1C=CC(NC(=O)C2(C(F)(F)F)CC(c3cc(F)cc(F)c3)=NO2)C1)N1CCCCO1 (mixture of isomers) . Value?
[A] 90

[Q] Endpoint output: Herbicidal action against [%] ABUTH of CC1(C(=O)N[C@H]2C=C[C@@H](C(=O)N3CCCO3)C2)CC(c2cc(F)cc(F)c2)=NO1 (some centres unmarked) . Value?
[A] 80

###

Overview of recorded Herbicidal action against [%] PHBPU for various compounds
- System: PHBPU
- measurement-description: Post-emergence herbicidal action against PHBPU
- Type: in vivo, Pharbitis purpurea
- condition: application rate 80 g/ha, rated visually about 3 weeks after treatment
Write the answer as a number in %, unit excluded.

Below: 4 compounds and their reported Herbicidal action against [%] PHBPU.
CC(C)C(C#N)NC(=O)C1C=CC(NC(=O)C2(C(F)(F)F)CC(c3cc(F)cc(F)c3)=NO2)C1 (mixture of isomers): 90
CC(C)(C#N)NC(=O)C1C=CC(NC(=O)C2(C(F)(F)F)CC(c3cc(F)cc(F)c3)=NO2)C1 (mixture of isomers): 90
COCCOC(=O)C1C=CC(NC(=O)C2(C)CC(c3cc(F)cc(C#N)c3)=NO2)C1 (mixture of isomers): 90
CCOC(=O)[C@@H]1C=C[C@H](NC(=O)C2(C(F)(F)F)CC(c3ccccc3)=NO2)C1 (stereo partly shown): 80

[Q] Endpoint output: Herbicidal action against [%] PHBPU of CCOC(=O)C1C=CC(NC(=O)C2(C(F)(F)F)CC(c3cc(Cl)cc(Cl)c3)=NO2)C1 (mixture of isomers) . Value?
[A] 80

[Q] Endpoint output: Herbicidal action against [%] PHBPU of Cc1cc(C2=NOC(C(=O)NC3C=CC(C(=O)OCCCl)C3)(C(F)(F)F)C2)cc(C(F)(F)F)c1 (mixture of isomers) . Value?
[A] 90

[Q] Endpoint output: Herbicidal action against [%] PHBPU of CCOC(=O)C1C=CC(NC(=O)C2(C(F)(F)F)CC(c3cc(C)cc(C)c3)=NO2)C1 (mixture of isomers) . Value?
[A] 80

[Q] Endpoint output: Herbicidal action against [%] PHBPU of COCCOC(=O)[C@@H]1C=C[C@H](NC(=O)[C@@]2(C)CC(c3cc(F)cc(F)c3)=NO2)C1 . Value?
[A] 80

[Q] Endpoint output: Herbicidal action against [%] PHBPU of CC(C)(C)OC(=O)[C@@H]1C=C[C@H](NC(=O)C2(C)CC(c3cccc(C#N)c3)=NO2)C1 (stereo partly shown) . Value?
[A] 90
